All values here come from patent EP3409761B1.

What % Control value of the RLU value (ATP measurement) was measured for each of the following?
Test system: human cervical cancer cell line HeLa
Test description: Comparison with single layer culture method using agent for inducing apoptosis
Type: cell-based
Reported conditions: agent 10 µM; single layer culture group; day 4
Starred links: 1 amine or outer side, 2 acyl side, 3 side chain; linkers in the order of their positions; H or OH if unused. Positions of bridges follow the written chain, without caps; N, C: chain ends. Non-standard residues stand in square brackets, D forms with d. Residues, ends and D or L forms follow the SMILES beside them. Chains are numbered I, II in the order given. Actinocin(9to1) = Cc1c2oc3c(C)ccc(C(=O)[*:1])c3nc-2c(C(=O)[*:2])c(N)c1=O; NMeV = CN[C@H](C(=O)O)C(C)C; Sar = CNCC(=O)O
Note: unit % Control is implicit; provide only the numeric part.

What % Control value of the RLU value (ATP measurement) value was documented for this compound, C[C@@H]1C[C@H]2[C@@H]3CCC4=CC(=O)C=C[C@]4(C)[C@@]3(F)[C@@H](O)C[C@]2(C)[C@@]1(O)C(=O)CO ?
116

State the recorded % Control value of the RLU value (ATP measurement) for this entry: C[C@@H]1C[C@@H]([C@H](O)CC2CC(=O)NC(=O)C2)C(=O)[C@@H](C)C1 [Cycloheximide]
29

Name the recorded % Control value of the RLU value (ATP measurement) for Cc1c2oc3c(C)ccc(C(=O)N[C@@H]4C(=O)N[C@H](C(C)C)C(=O)N5CCC[C@H]5C(=O)N(C)CC(=O)N(C)[C@@H](C(C)C)C(=O)O[C@@H]4C)c3nc-2c(C(=O)N[C@@H]2C(=O)N[C@H](C(C)C)C(=O)N3CCC[C@H]3C(=O)N(C)CC(=O)N(C)[C@@H](C(C)C)C(=O)O[C@@H]2C)c(N)c1=O [Actinomycin D] (I: T[dV]P[Sar][NMeV] / II: T[dV]P[Sar][NMeV]; ester I:1-I:C, II:1-II:C; linker I:N-II:N via Actinocin(9to1)) .
2

I have this compound here, COc1cc([C@@H]2c3cc4c(cc3[C@@H](O[C@@H]3O[C@@H]5CO[C@@H](C)O[C@H]5[C@H](O)[C@H]3O)[C@H]3COC(=O)[C@H]23)OCO4)cc(OC)c1O [Etoposide] , and I need its recorded % Control value of the RLU value (ATP measurement).
65
